- TEST_METHOD_NOTES: Cytotoxicity against human SK-MEL-2 cells after 3 days by sulforhodamine B assay
- Format: cell-based
- DETAILS: read-out: ED50
MEASURED_PARAMETER: CC50 at 72 h (µg/mL)
Please reply with the bare figure in µg/mL and do not write the unit itself.

input: Would you mind telling me what CC50 at 72 h value was observed for COc1ccc2cc1Oc1ccc(cc1)C[C@H]1c3c(cc(O)c(OC)c3Oc3cc4c(cc3OC)CCN(C)[C@@H]4C2)CCN1C ?
output: 12.8

input: Reported CC50 at 72 h, molecule COc1ccc2cc1Oc1ccc(cc1)C[C@H]1c3cc(c(OC)cc3CCN1C)Oc1c(OC)c(OC)cc3c1[C@@H](C2)NCC3 : ____
output: 8.2
